Experiment: Rat abraded skin model, skin penetration (plasma levels) following dermal administration
Format: in vivo
Conditions: abraded skin, samples at 2, 4, 24 and 72 hours
metric: plasma levels (PK analysis)

compound | val
CCC(CC)(Cc1c(SC(C)(C)C)c2cc(OCc3ccc(C)cn3)ccc2n1Cc1ccc(-c2ncc(OC)cn2)cc1)C(=O)O [Compound G] | measurable plasma levels
COc1cnc(-c2ccc(Cn3c(CC(C)(C)C(=O)O)c(SC(C)(C)C)c4cc(OCc5ccc(C)cn5)ccc43)cc2)nc1 [Compound A] | measurable plasma levels
CC(=O)N1CCC[C@H]1COc1ccc2c(c1)c(SC(C)(C)C)c(CC(C)(C)C(=O)O)n2Cc1ccc(Cl)cc1 [Compound I] | measurable plasma levels
COc1cnc(-c2ccc(Cn3c(CC(C)(C)C(=O)O)c(SC(C)(C)C)c4cc(OCc5cnc(C)cn5)ccc43)cc2)nc1 [Compound B] | measurable plasma levels
